Measured values drawn from the supplement of paper PMC10567573 for this set.

B1: HDAC6 (parent)
chain: QEGLLDRCVSFQARFAEKEELMLV

Variants of: B1
Assay: protein stability index of a GFP-peptide fusion (GPS, HEK-293T) (PSI 1-6); higher = more stable;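 further: lentivirally expressed fusions sorted by FACS into six bins by GFP to DsRed ratio, PSI derived from sequencing read proportions per bin multiplied by bin number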
Details: c terminus: a fixed tail appended

{"columns": ["MUTATION ID", "protein stability index"],
 "data": [
  ["L23F", 1.96],
  ["E19I", 2],
  ["E17A", 2.05]
]}
